Biological target: T1, Human CD19-his protein (human, UniProt P15391 20-291)
T1 construct: bought protein; also called human CD19 protein; recombinant human CD19-His; not shown: His tag
T1 sequence (looked up): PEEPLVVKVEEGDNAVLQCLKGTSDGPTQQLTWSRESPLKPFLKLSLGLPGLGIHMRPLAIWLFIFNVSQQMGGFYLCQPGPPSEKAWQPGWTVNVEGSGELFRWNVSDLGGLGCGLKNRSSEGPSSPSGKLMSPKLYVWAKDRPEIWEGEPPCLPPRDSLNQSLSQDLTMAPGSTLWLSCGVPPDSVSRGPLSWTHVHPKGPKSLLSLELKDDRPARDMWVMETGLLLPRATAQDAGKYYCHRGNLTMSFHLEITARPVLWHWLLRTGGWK
Test: ELISA, antibody at 0.0001 nM
Each entry below carries its recorded OD450.
Respond with the number and no other words.

Reference set (8 entries):
binder="F3.114.12 (antibody, human IgG1, V domains shown, human-murine chimeric antibody, human IgG1) VH: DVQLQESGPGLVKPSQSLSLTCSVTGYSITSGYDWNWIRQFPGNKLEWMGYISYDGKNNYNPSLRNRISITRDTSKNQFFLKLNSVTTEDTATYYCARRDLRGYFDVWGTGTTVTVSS VL: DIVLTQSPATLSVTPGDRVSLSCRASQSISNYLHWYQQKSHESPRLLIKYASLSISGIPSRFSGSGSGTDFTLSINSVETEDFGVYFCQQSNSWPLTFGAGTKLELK" valuereported=0.05
binder="F4.49.11 (antibody, human IgG1, V domains shown, human-murine chimeric antibody, human IgG1) VH: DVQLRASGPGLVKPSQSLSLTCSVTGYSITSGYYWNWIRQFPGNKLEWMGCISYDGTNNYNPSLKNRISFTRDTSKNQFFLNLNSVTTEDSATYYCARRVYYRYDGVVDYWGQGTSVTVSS VL: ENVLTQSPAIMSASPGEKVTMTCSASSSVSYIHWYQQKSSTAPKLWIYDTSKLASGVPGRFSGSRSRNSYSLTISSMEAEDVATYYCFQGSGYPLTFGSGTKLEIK" valuereported=0.04
binder="F3.13.2 (antibody, human IgG1, V domains shown, human-murine chimeric antibody, human IgG1) VH: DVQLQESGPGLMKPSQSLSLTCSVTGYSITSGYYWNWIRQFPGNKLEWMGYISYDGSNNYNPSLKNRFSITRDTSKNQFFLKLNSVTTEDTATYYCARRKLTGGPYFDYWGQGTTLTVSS VL: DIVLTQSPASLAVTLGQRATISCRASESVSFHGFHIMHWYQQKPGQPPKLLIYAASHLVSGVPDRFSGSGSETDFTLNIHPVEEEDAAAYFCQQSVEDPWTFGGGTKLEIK" valuereported=0.05
binder="F3.40.14 (antibody, human IgG1, V domains shown, human-murine chimeric antibody, human IgG1) VH: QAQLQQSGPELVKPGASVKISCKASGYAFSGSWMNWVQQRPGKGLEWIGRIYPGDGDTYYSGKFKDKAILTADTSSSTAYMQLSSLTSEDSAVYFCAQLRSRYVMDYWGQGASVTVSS VL: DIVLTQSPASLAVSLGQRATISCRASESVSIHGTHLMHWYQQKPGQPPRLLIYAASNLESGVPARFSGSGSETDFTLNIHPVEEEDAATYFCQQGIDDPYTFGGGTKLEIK" valuereported=0.05
binder="F4.48.12 (antibody, human IgG1, V domains shown, human-murine chimeric antibody, human IgG1) VH: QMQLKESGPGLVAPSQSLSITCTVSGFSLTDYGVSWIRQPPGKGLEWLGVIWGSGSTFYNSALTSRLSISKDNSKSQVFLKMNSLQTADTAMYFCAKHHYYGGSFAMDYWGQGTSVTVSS VL: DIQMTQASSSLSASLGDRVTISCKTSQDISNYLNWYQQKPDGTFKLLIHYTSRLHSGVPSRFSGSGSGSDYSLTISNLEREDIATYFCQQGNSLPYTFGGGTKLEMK" valuereported=0.06
binder="F6.2.9 (antibody, human IgG1, V domains shown, human-murine chimeric antibody, human IgG1) VH: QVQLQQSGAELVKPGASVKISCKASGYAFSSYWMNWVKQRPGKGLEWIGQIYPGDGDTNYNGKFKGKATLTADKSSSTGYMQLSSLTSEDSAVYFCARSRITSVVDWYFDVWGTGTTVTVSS VL: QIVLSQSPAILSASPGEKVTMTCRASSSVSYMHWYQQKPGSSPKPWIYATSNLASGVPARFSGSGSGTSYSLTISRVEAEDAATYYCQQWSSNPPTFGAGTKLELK" valuereported=0.06
binder="F5.8.6 (antibody, human IgG1, V domains shown, human-murine chimeric antibody, human IgG1) VH: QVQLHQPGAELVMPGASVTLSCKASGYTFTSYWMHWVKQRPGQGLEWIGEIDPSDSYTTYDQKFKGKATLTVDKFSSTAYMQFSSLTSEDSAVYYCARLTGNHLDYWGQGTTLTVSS VL: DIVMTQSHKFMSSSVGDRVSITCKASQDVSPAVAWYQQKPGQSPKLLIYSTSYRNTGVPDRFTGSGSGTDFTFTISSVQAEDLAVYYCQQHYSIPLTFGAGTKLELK" valuereported=0.05
binder="F4.96.6 (antibody, human IgG1, V domains shown, human-murine chimeric antibody, human IgG1) VH: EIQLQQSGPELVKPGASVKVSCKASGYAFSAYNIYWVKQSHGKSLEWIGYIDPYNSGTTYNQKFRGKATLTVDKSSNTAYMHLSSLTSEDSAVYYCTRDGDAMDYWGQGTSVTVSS VL: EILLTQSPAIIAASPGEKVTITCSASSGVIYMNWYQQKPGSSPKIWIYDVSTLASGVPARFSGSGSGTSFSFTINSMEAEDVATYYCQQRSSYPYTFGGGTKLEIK" valuereported=0.05

Problem: Tell me the measured OD450 of F4.22.6 (antibody, human IgG1, V domains shown, human-murine chimeric antibody, human IgG1) VH: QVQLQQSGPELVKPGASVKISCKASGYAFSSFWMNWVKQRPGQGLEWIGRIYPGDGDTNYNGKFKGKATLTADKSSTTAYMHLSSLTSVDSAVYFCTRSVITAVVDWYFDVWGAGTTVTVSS VL: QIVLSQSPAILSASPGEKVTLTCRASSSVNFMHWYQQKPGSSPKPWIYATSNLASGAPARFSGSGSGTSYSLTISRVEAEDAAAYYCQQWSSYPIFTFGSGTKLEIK , please.
Solution: 0.06

Problem: Tell me the measured OD450 of F5.3.6 (antibody, human IgG1, V domains shown, human-murine chimeric antibody, human IgG1) VH: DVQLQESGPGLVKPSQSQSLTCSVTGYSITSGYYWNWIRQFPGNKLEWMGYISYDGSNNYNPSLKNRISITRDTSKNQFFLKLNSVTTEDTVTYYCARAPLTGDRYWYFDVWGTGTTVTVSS VL: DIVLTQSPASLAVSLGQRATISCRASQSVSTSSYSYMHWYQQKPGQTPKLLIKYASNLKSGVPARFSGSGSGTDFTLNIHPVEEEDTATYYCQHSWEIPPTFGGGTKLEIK , please.
Solution: 0.05
